# Method: In vivo pharmacokinetic study in mice, oral ibrutinib (plasma, LC-MS/MS)
# Cond: female, FVB, mouse, plasma, po, 10 mg/kg, Ibrutinib Cmax, female CYP3A-/- mice; ibrutinib 10 mg/kg oral; cotreatment corn oil; mean (SE)
Quantity Kind: Cmax

1. C=CC(=O)N1CCC[C@@H](n2nc(-c3ccc(Oc4ccccc4)cc3)c3c(N)ncnc32)C1 [Ibrutinib]	1390 ng/mL

* * *

# Method: In vivo pharmacokinetic study in mice, oral ibrutinib (plasma, LC-MS/MS)
# Cond: female, FVB, mouse, plasma, po, 4 mg/kg, Ibrutinib AUC(0-last), female wild-type FVB mice; ibrutinib 4 mg/kg oral; cotreatment cobicistat 30 mg/kg; mean (SE)
Quantity Kind: AUC(0-t) (ng·h/mL)

1. C=CC(=O)N1CCC[C@@H](n2nc(-c3ccc(Oc4ccccc4)cc3)c3c(N)ncnc32)C1	1200
